Molecular target: ATP-binding cassette transporter A1 (ABCA1) (UniProt P41233 1-2261, limits assumed); note: test concentration or dose not given here
Sequence (P41233 whole entry): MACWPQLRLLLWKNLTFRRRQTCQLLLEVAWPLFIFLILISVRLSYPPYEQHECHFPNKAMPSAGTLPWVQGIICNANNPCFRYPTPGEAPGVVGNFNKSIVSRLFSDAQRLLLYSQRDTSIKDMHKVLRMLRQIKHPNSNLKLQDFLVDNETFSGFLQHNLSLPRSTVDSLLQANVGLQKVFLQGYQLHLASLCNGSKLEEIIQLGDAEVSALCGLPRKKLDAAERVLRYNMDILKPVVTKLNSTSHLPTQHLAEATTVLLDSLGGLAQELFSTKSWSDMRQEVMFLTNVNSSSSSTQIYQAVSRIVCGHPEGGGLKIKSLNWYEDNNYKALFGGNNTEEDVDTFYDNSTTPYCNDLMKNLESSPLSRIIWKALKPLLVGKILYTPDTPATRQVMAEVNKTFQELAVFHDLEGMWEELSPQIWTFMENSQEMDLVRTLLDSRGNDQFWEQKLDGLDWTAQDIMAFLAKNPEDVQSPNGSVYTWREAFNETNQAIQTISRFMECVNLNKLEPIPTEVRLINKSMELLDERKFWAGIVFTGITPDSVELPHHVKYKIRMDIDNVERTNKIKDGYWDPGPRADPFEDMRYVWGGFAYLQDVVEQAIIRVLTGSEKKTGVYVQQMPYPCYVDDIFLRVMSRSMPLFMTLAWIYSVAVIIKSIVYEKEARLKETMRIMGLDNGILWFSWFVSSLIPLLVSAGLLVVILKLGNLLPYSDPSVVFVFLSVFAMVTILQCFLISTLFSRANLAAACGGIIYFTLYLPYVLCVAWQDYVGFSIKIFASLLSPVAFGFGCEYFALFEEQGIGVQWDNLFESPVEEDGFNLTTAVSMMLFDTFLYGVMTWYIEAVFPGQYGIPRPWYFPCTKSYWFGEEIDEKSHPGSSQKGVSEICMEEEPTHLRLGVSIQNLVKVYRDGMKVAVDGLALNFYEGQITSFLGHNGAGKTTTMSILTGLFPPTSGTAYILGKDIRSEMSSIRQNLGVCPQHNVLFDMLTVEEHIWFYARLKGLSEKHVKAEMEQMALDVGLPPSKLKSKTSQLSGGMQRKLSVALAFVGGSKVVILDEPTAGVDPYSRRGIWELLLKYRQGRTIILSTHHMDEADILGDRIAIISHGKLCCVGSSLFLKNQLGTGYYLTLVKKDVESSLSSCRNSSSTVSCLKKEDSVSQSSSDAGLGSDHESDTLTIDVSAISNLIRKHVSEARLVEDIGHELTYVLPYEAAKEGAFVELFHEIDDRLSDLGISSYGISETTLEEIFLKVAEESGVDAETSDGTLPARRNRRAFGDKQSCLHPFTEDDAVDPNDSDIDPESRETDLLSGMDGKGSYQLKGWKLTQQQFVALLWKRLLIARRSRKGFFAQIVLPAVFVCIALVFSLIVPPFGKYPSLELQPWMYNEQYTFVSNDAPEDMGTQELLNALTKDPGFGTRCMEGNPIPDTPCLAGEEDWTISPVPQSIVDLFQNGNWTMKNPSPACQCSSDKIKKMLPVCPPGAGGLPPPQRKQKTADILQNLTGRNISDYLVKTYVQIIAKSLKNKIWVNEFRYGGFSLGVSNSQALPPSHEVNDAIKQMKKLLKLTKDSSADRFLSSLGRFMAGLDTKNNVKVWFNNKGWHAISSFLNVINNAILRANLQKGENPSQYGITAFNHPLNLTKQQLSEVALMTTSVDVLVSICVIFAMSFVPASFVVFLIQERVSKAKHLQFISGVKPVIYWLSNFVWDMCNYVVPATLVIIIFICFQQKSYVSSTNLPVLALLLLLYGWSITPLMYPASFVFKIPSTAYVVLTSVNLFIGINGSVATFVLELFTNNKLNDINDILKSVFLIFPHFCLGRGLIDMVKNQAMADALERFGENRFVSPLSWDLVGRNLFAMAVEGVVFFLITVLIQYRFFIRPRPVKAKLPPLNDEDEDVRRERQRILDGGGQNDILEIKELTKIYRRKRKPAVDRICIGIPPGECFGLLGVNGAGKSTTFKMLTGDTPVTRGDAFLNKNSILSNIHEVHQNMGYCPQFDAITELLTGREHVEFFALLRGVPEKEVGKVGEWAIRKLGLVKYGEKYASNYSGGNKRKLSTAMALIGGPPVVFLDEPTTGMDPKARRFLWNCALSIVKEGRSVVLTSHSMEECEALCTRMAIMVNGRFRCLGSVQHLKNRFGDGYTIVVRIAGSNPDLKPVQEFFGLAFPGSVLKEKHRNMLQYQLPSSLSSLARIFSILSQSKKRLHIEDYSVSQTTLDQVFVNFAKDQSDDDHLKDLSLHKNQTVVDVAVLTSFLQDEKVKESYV
Assay: cell-based or functional assay
measured_attribute: % cholesterol efflux/8 hours, Plus cAMP (%)

[[record]]
binder = "DLRDRLDAWLDLLRDLLDRL [N1154-11]"
unit_descriptor = "%"
recorded_number = 9.04

[[record]]
binder = "ELREKLEAWLELLRELLERL [N1154-6]"
unit_descriptor = "%"
recorded_number = 4.29

[[record]]
binder = "ELRERLEAWLELLRELLERL [N1154-7]"
unit_descriptor = "%"
recorded_number = 4.14

[[record]]
binder = "DLRDKLDAWLDLLRDLLDRL [N1154-9]"
unit_descriptor = "%"
recorded_number = 4.83

[[record]]
binder = "ELRDRLEAWLDLLRELLERL [N1154-10]"
unit_descriptor = "%"
recorded_number = 8.25

[[record]]
binder = "ELRDKLEAWLDLLRELLERL [N1154-8]"
unit_descriptor = "%"
recorded_number = 4.38


Values compiled from patent US20110190196A1.
